Where do the numbers come from? From ChEMBL document CHEMBL1926681.

test system: HCT-116; assay: Cytotoxicity against human HCT116 cells after 4 days by propidium iodide staining-based fluorometric analysis; assay type: functional, cell-based; settings: HCT-116, 96 h
Collected pIC50 values appear next to each entry.
Scale: pIC50 equals -log10([C]), with [C] in mol/L.

>>> test_result("O=C(c1cc2ccccc2[nH]1)c1cc2c(Nc3ccc(F)c(Cl)c3)ncnc2s1")
5.08

Qu. # query: pIC50 of entry O=C(c1cc2ccccc2[nH]1)c1cc2c(Nc3cccc(Cl)c3)ncnc2s1
Ans. 4.72

Qu. Same question for CS(=O)(=O)CCNCc1ccc(-c2ccc3ncnc(Nc4ccc(OCc5cccc(F)c5)c(Cl)c4)c3c2)o1 please.
Ans. 4.88

Qu. Now this one: O=C(c1cc2cc(O)ccc2[nH]1)c1cc2c(Nc3ccc(F)c(Cl)c3)ncnc2s1
Ans. 5.11

Qu. Now consider C#Cc1cccc(Nc2ncnc3cc(OCCOC)c(OCCOC)cc23)c1 .
Ans. 4.18

Qu. Try this molecule next: COc1ccc2[nH]c(C(=O)c3cc4c(Nc5ccc(F)c(Cl)c5)ncnc4s3)cc2c1
Ans. 4.92

* * *

system: MKN-45; test: Cytotoxicity against human MKN45 cells after 4 days by propidium iodide staining-based fluorometric analysis; format: functional, cell-based; settings: MKN-45, 96 h
readout_label: pIC50
The value called pIC50 is obtained by taking minus log10 of the concentration in mol/L.

Example entries and their recorded answers appear below.
>>> test_result("O=C(c1cc2ccccc2[nH]1)c1cc2c(Nc3ccc(F)c(Cl)c3)ncnc2s1")
4.90
>>> test_result("COc1ccc2[nH]c(C(=O)c3cc4c(Nc5ccc(F)c(Cl)c5)ncnc4s3)cc2c1")
4.42
>>> test_result("CS(=O)(=O)CCNCc1ccc(-c2ccc3ncnc(Nc4ccc(OCc5cccc(F)c5)c(Cl)c4)c3c2)o1 [LAPATINIB]")
4.94
>>> test_result("O=C(c1cc2cc(O)ccc2[nH]1)c1cc2c(Nc3ccc(F)c(Cl)c3)ncnc2s1")
5.14

Qu. For the record O=C(c1cc2ccccc2[nH]1)c1cc2c(Nc3cccc(Cl)c3)ncnc2s1 , what value of pIC50 is listed for MKN-45?
Ans. 4.69

Qu. Another: C#Cc1cccc(Nc2ncnc3cc(OCCOC)c(OCCOC)cc23)c1 [ERLOTINIB]
Ans. 4.12

* * *

target: Receptor tyrosine-protein kinase erbB-2 (Homo sapiens) (UniProt P04626); experiment: Inhibition of Erbb2 using poly(Glu,Tyr)4:1 as substrate and [gamma33P]ATP at 1 uM after 60 mins by scintillation counting
Sequence (P04626 whole entry): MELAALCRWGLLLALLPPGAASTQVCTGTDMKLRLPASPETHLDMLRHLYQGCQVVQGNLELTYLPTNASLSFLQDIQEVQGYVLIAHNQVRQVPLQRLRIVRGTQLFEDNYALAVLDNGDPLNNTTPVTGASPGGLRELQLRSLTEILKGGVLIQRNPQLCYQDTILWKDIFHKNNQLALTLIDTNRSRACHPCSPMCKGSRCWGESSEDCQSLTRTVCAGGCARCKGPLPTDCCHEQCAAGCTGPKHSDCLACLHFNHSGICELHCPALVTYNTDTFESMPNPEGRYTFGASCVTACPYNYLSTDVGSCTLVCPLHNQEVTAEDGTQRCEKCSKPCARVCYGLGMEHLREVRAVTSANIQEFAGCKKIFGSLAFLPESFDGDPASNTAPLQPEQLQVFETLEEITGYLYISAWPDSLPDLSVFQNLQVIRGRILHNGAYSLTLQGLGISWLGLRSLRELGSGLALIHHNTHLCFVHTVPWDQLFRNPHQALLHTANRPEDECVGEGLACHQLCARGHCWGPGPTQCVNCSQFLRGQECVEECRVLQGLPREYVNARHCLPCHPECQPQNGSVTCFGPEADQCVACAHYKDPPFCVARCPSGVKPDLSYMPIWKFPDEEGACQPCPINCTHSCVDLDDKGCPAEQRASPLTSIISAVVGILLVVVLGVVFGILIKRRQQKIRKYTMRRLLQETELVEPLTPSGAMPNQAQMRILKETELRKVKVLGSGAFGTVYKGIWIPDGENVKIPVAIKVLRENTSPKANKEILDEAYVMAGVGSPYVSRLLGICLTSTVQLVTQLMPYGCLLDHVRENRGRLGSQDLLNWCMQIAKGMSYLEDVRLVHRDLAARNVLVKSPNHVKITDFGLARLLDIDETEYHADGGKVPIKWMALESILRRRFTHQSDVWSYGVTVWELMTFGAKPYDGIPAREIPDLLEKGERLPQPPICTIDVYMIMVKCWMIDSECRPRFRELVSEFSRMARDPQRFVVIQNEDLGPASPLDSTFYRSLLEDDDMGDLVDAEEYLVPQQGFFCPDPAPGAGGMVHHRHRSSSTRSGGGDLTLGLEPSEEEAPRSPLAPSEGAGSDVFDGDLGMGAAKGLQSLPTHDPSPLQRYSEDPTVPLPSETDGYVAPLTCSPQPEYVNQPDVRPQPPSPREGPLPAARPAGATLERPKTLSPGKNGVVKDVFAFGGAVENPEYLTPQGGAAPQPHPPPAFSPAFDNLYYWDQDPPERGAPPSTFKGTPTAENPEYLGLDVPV
inhibition of 40% or higher: condition met. Under 40%: condition not met.

>>> label_class("O=C(c1cc2ccccc2[nH]1)c1cc2c(Nc3ccc(Br)cc3F)ncnc2[nH]1")
"condition not met"

Could you now consider this next compound?
Qu. Is inhibition at least 40%? Consider O=C(c1cc2ccccc2o1)c1cc2c(Nc3ccc(F)c(Cl)c3)ncnc2s1
Ans. condition met

* * *

biological target: Epidermal growth factor receptor (Homo sapiens, UniProt P00533); assay: Inhibition of EGFR using poly(Glu,Tyr)4:1 as substrate and [gamma33P]ATP after 60 mins by scintillation counting
Sequence (P00533 whole entry): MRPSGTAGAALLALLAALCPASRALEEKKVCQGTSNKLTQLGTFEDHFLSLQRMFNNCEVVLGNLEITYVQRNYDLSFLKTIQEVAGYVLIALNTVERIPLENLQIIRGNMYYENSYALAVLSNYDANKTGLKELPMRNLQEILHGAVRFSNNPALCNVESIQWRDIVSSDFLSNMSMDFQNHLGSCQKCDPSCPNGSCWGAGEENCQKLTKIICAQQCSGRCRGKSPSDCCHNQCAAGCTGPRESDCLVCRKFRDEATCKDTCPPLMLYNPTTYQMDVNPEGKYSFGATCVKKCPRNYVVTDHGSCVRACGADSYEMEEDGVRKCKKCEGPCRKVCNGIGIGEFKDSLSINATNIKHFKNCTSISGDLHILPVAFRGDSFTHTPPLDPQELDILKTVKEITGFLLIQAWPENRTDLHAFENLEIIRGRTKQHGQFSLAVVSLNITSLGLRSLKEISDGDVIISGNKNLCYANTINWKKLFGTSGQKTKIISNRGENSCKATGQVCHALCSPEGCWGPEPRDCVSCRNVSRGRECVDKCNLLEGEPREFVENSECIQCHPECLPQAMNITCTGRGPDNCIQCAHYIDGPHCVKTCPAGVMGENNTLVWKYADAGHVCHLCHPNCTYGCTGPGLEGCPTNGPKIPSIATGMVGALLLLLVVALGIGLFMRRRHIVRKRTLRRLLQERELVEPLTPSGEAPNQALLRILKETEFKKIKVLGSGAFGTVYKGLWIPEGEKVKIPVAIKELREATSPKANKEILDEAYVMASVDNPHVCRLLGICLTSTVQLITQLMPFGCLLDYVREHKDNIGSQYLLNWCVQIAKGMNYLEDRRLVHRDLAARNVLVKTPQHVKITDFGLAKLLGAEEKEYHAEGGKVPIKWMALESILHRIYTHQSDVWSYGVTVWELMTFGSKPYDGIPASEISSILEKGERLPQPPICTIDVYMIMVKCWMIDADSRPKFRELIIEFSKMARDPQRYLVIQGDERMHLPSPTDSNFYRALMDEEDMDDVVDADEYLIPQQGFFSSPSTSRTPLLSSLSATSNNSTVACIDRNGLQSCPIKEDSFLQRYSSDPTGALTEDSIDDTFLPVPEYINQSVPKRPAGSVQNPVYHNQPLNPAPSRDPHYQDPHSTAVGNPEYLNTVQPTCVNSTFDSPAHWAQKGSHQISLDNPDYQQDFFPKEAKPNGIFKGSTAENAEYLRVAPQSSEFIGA
Could you mark each record criterion met if its IC50 falls strictly under 10 nM, and criterion not met if it equals or exceeds it?

>>> label_class("O=C(c1cc2ccccc2[nH]1)c1cc2c(Nc3ccc(F)cc3)ncnc2s1")
"criterion not met"
>>> label_class("O=C(c1cc2ccccc2[nH]1)c1cc2c(Nc3ccc(OCc4cccc(F)c4)cc3Cl)ncnc2s1")
"criterion not met"
>>> label_class("O=C(c1cc2ccccc2[nH]1)c1cc2c(Nc3ccc(F)c(Cl)c3)ncnc2s1")
"criterion met"

Qu. Hello, is IC50 of the following compound strictly smaller than 10 nM? C#Cc1cccc(Nc2ncnc3sc(C(=O)c4cc5ccccc5[nH]4)cc23)c1
Ans. criterion not met

Qu. Could you do the same for O=C(c1cc2cc(O)ccc2[nH]1)c1cc2c(Nc3ccc(F)c(Cl)c3)ncnc2s1 , please?
Ans. criterion not met

Qu. Param item: COc1ccc2[nH]c(C(=O)c3cc4c(Nc5ccc(F)c(Cl)c5)ncnc4s3)cc2c1
Ans. criterion met

Qu. Cool, now O=C(c1cc2ccccc2s1)c1cc2c(Nc3ccc(F)c(Cl)c3)ncnc2s1
Ans. criterion not met

Qu. // query: O=C(c1cc2ccccc2[nH]1)c1cc2c(Nc3cccc(Cl)c3)ncnc2s1
Ans. criterion not met

* * *

assay: Cytotoxicity against human PAXF 1657L cells after 4 days by propidium iodide staining-based fluorometric analysis; format: functional, cell-based; settings: 96 h
readout_label: pIC50
pIC50 (log units): -log10 of the concentration in mol/L.

>>> test_result("C#Cc1cccc(Nc2ncnc3cc(OCCOC)c(OCCOC)cc23)c1 [ERLOTINIB]")
4.19
>>> test_result("CS(=O)(=O)CCNCc1ccc(-c2ccc3ncnc(Nc4ccc(OCc5cccc(F)c5)c(Cl)c4)c3c2)o1 [LAPATINIB]")
4.95
>>> test_result("O=C(c1cc2cc(O)ccc2[nH]1)c1cc2c(Nc3ccc(F)c(Cl)c3)ncnc2s1")
5.04
>>> test_result("O=C(c1cc2ccccc2[nH]1)c1cc2c(Nc3cccc(Cl)c3)ncnc2s1")
4.32
>>> test_result("O=C(c1cc2ccccc2[nH]1)c1cc2c(Nc3ccc(F)c(Cl)c3)ncnc2s1")
4.75

Next up:
Qu. Would you mind telling me what pIC50 value was observed for COc1ccc2[nH]c(C(=O)c3cc4c(Nc5ccc(F)c(Cl)c5)ncnc4s3)cc2c1 ?
Ans. 4.61

* * *

target: Epidermal growth factor receptor (Homo sapiens, UniProt P00533); assay: Inhibition of EGFR using poly(Glu,Tyr)4:1 as substrate and [gamma33P]ATP at 1 uM after 60 mins by scintillation counting
Entries and their inhibition values follow.
Value expressed in %; do not type the unit.

>>> test_result("O=C(c1cc2ccccc2[nH]1)c1cc2c(Nc3cccc(I)c3)ncnc2[nH]1")
88

Qu. Give the measured inhibition of O=C(c1cc2ccccc2[nH]1)c1cc2c(Nc3ccc(C(F)(F)F)cc3)ncnc2s1 .
Ans. 43

Qu. Next record, please: O=C(c1cc2ccccc2[nH]1)c1cc2c(Nc3ccc(F)c(Cl)c3)ncnc2[nH]1
Ans. 88

Qu. Lookup O=C(c1cc2ccccc2[nH]1)c1cc2c(Nc3ccc(Br)cc3F)ncnc2s1
Ans. 82

* * *

test system: CAL-27; test: Cytotoxicity against human CAL27 cells after 4 days by propidium iodide staining-based fluorometric analysis; format: functional, cell-based; conditions: CAL-27, 96 h
Binary label based on IC50 with cut-off 2000 nM: below gives yes (1), not below gives no (0).

Qu. Consider the compound C#Cc1cccc(Nc2ncnc3cc(OCCOC)c(OCCOC)cc23)c1 . Is its IC50 strictly less than 2000 nM?
Ans. yes (1)

Qu. Now this one: O=C(c1cc2cc(O)ccc2[nH]1)c1cc2c(Nc3ccc(F)c(Cl)c3)ncnc2s1
Ans. yes (1)

Qu. Again, but for CS(=O)(=O)CCNCc1ccc(-c2ccc3ncnc(Nc4ccc(OCc5cccc(F)c5)c(Cl)c4)c3c2)o1
Ans. yes (1)

Qu. Then this compound: O=C(c1cc2ccccc2[nH]1)c1cc2c(Nc3ccc(F)c(Cl)c3)ncnc2s1
Ans. no (0)

Qu. Record: COc1ccc2[nH]c(C(=O)c3cc4c(Nc5ccc(F)c(Cl)c5)ncnc4s3)cc2c1
Ans. yes (1)

Qu. Please give the result for O=C(c1cc2ccccc2[nH]1)c1cc2c(Nc3cccc(Cl)c3)ncnc2s1 too.
Ans. no (0)

* * *

Below: a set of entries, each annotated with reported IC50.
assay: Cytotoxicity against human LIXF 575L cells after 4 days by propidium iodide staining-based fluorometric analysis; type: functional, cell-based; conditions: 96 h
// return numeric value only (unit: µM, not printed)

>>> test_result("O=C(c1cc2ccccc2[nH]1)c1cc2c(Nc3ccc(F)c(Cl)c3)ncnc2s1")
8.15
>>> test_result("COc1ccc2[nH]c(C(=O)c3cc4c(Nc5ccc(F)c(Cl)c5)ncnc4s3)cc2c1")
9.3

Qu. Look up IC50 for this molecule: CS(=O)(=O)CCNCc1ccc(-c2ccc3ncnc(Nc4ccc(OCc5cccc(F)c5)c(Cl)c4)c3c2)o1 [LAPATINIB]
Ans. 7.18

* * *

target: Receptor tyrosine-protein kinase erbB-2 (Homo sapiens) (UniProt P04626); experiment: Inhibition of Erbb2 using poly(Glu,Tyr)4:1 as substrate and [gamma33P]ATP at 1 uM after 60 mins by scintillation counting
Response field class: enum, chosen by comparing inhibition against low-valued (below 20%), mid-valued (20% to below 50%), high-valued (50% or more)

>>> label_class("C[C@@H](Nc1ncnc2[nH]c(C(=O)c3cc4ccccc4[nH]3)cc12)c1ccccc1")
"mid-valued"
>>> label_class("O=C(c1cc2ccccc2[nH]1)c1cc2c(Nc3ccc(Cl)cc3)ncnc2s1")
"mid-valued"
>>> label_class("O=C(c1cc2ccccc2[nH]1)c1cc2c(Nc3ccc(F)c(Cl)c3)ncnc2s1")
"high-valued"
>>> label_class("O=C(c1cc2ccccc2[nH]1)c1cc2c(Nc3ccc(Cl)cc3)ncnc2[nH]1")
"mid-valued"

Qu. Which category does the recorded inhibition put O=C(c1cc2ccccc2[nH]1)c1cc2c(NCc3ccccc3)ncnc2s1 in?
Ans. mid-valued

Qu. Record: O=C(c1cc2ccccc2s1)c1cc2c(Nc3ccc(F)c(Cl)c3)ncnc2s1
Ans. high-valued

Qu. Ok, now O=C(c1cc2ccccc2[nH]1)c1cc2c(Nc3cccc(C(F)(F)F)c3)ncnc2s1
Ans. mid-valued

Qu. What do you get for COc1ccc2[nH]c(C(=O)c3cc4c(Nc5cccc(I)c5)ncnc4[nH]3)cc2c1 ?
Ans. mid-valued

Qu. Entry O=C(c1cc2ccccc2[nH]1)c1cc2c(Nc3ccc(O)cc3)ncnc2[nH]1 please
Ans. low-valued

Qu. Next record, please: C[C@@H](Nc1ncnc2sc(C(=O)c3cc4ccccc4[nH]3)cc12)c1ccccc1
Ans. high-valued

Qu. Also O=C(c1cc2ccccc2[nH]1)c1cc2c(Nc3ccc(F)c(Cl)c3)ncnc2[nH]1 ?
Ans. mid-valued

Qu. Same for O=C(c1cc2ccccc2[nH]1)c1cc2c(Nc3cccc(I)c3)ncnc2s1
Ans. high-valued
